The reported measurements were obtained from PubChem BioAssay AID463173.

Tested on: DeltatarO mutant
experimental_details: S. aureus survival, RN4220 and DeltatarO strains – OD600, teichoic acid synthesis inhibitors, primary screen (AID 463173)
test_context: S. aureus RN4220 wild type/DeltatarO growth, OD600, 18 h, screened at 18.75 µg/mL (by protocol)
The whole screen tested about 52,000 compounds, of which about 4,300 (8.3%) were called active. No stated cut-off is given here; in the data, active means survival mostly below about 52% (no sharp cut-off); inactive means mostly above about 56%. Many of the other results were omitted from the sample, so actives are more common in it than they were.
Hi there, use one of these labels in your reply, thanks! y = active, n = inactive

For orientation, consider the following solved cases.
COc1cccc(/C=N/c2nc3ccccc3n2C)c1O : n
Cc1ccc(Nc2c3c(nc4nncn24)CCC3)cc1C : n
CCOC(=O)C1CCN(C(=O)CSc2n[nH]c(-c3ccccc3)n2)CC1 : n

Please turn your attention to the following entry.
Kindly provide the recorded test outcome for the following compound: COc1ccc(OCc2ccc(-c3nc(C#N)c(NCc4cccnc4)o3)o2)cc1
n

---

System: DeltatarO mutant
experimental_details: S. aureus survival, RN4220 and DeltatarO strains – OD600, teichoic acid synthesis inhibitors, primary screen (AID 463173)
test_context: S. aureus RN4220 wild type/DeltatarO growth, OD600, 18 h, screened at 18.75 µg/mL (by protocol)
The whole screen tested about 52,000 compounds, of which about 4,300 (8.3%) were called active. Rule as the data show it: active = survival mostly below about 52% (no sharp cut-off); inactive = mostly above about 56%. What follows is part of a selection rich in actives, with near analogues and random picks from the rest.
Entry note: the call must match one of active, inactive

Consider the following illustrative entries.
O=C(NC1CCCC1)C(c1ccsc1)N(C(=O)Cc1cccs1)c1ccccc1 (stereo unspecified) : inactive
CCOc1cccc2cc(-c3nc4ccc(C(=O)O)cc4[nH]3)c(=O)oc12 : inactive
C=CCc1c(C)nc2nc(SCC(=O)Nc3cccc(Cl)c3)nn2c1C : inactive
Cc1nc2ccccc2n1CCc1nc2c3ccccc3nc(SCC(=O)Nc3ccc(Br)cc3F)n2n1 : inactive
Cc1ccccc1CNC(=O)c1ccc(Cn2c(SCc3cccc(F)c3)nc3cccnc32)cc1 : inactive
COc1ccccc1-c1nc(S(=O)(=O)c2ccc(Cl)cc2)c(N2CCCCCC2)o1 : inactive
CCCCN(CCCC)S(=O)(=O)c1ccc(NC(=O)c2c(-c3ccccc3)noc2C)cc1 : inactive
Cc1ccc2nc(-c3ccncc3)c(Nc3ccc(C(C)C)cc3)n2c1 : inactive
Cc1nnc2c3ccccc3nc(N3CCN(c4cccc(Cl)c4)CC3)n12 : inactive
COc1ccc(NC(=O)CSc2nc(-c3ccco3)cc(C(F)(F)F)n2)cc1Cl : active

Shifting focus to the compound that follows.
What classification did CCn1cc(C(=O)OCC(=O)Nc2cccc(C(C)=O)c2)c(=O)c2ccc(C)nc21 end up with in this test?
inactive

---

System: DeltatarO mutant
experimental_details: S. aureus survival, RN4220 and DeltatarO strains – OD600, teichoic acid synthesis inhibitors, primary screen (AID 463173)
test_context: S. aureus RN4220 wild type/DeltatarO growth, OD600, 18 h, active compounds read low, screened at 18.75 µg/mL (by protocol)
Among all 52,000 compounds or so, about 4,300 (8.3%) were called active. The list comes from a sample in which actives are over-represented; it also holds close analogues and randomly drawn compounds.
For each record, write down the corresponding survival.
Answers are plain numbers, in %.

# annotated cases, reported survival shown
Cc1oc2ncnc(N3CCCCC3)c2c1C(=O)N1CCN(c2cccc(C(F)(F)F)c2)CC1 : 66
CCOC(=O)c1c(-c2ccc(OC)cc2)oc2ccc(OCc3ccc(Br)cc3)cc12 : 63
CCOC(=O)c1c(-c2ccccc2)oc2cc(Br)c(OCc3ccccc3)cc12 : 36
Cc1ccn2c(Nc3ccccc3C)c(-c3cccnc3)nc2c1 : 81
Fc1ccccc1N1CCN(c2ncnc3onc(-c4cccc(Cl)c4)c23)CC1 : 53
CCOC(=O)c1c(-c2ccccc2)oc2ccc(N(C(C)=O)S(=O)(=O)c3ccc(C)cc3)cc12 : 62

Working through the 2 compounds below one at a time, give survival for each.
1. Cc1oc2ncnc(N3CCOCC3)c2c1C(=O)NCCc1ccccc1
2. Cc1oc2ncnc(N3CCOCC3)c2c1C(=O)N1CCN(c2cccc(C(F)(F)F)c2)CC1

[89, -5]
